Each entry below carries its recorded % Annexin V/PI-positive cells, DLD-1, 10 µg/ml mAb.
# SUBJECT OF TEST: T1, human EpCAM (epithelial cell adhesion/activating molecule) (human, UniProt P16422 24-314)
# T1 sequence: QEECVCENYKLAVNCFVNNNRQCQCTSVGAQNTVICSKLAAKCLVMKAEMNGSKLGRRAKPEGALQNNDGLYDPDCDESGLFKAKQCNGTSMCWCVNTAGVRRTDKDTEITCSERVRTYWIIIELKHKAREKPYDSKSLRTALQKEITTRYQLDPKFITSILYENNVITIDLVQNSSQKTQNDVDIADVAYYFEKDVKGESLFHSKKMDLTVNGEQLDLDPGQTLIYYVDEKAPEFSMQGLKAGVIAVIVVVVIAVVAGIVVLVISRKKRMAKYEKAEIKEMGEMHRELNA
# PROCEDURE DETAILS: cell-based or functional assay
All answers are understood in %, so give the number only.

murine monoclonal antibody 2D11 (antibody, mouse IgG1, V domains shown, Mouse IgG1, kappa, from hybridoma; also called m322-2D11.19) VH: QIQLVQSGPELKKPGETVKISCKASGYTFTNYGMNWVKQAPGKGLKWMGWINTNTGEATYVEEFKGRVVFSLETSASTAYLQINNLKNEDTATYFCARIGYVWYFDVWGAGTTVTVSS VL: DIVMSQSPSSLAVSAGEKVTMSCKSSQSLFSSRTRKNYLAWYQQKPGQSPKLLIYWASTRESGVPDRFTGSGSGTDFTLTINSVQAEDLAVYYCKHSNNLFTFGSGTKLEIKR: 48
murine monoclonal antibody 4D2 (antibody, mouse IgG1, V domains shown, Mouse IgG1, kappa, from hybridoma; also called m338-4D2.20) VH: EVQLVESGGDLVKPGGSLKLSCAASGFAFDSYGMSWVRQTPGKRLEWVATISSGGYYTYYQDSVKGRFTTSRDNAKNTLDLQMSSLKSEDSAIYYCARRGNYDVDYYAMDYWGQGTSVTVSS VL: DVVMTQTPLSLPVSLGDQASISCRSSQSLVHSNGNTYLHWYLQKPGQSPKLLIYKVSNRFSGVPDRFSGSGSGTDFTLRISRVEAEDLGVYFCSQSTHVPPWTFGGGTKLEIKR: 62
murine monoclonal antibody 6D11 (antibody, mouse IgG1, V domains shown, Mouse IgG1, kappa, from hybridoma; also called m338-6D11.8) VH: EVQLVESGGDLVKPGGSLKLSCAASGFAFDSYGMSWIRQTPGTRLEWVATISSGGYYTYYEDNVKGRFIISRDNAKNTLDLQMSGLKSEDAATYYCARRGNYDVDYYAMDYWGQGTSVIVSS VL: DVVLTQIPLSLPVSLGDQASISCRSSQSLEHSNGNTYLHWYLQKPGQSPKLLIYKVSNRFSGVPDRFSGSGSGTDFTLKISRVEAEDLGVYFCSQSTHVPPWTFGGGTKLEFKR: 62

Turning now to a further binder:
Fill blank: measured % Annexin V/PI-positive cells, DLD-1, 10 µg/ml mAb of the binder murine monoclonal antibody 12H8 (antibody, mouse IgG2a, V domains shown, Mouse IgG2a, kappa, from hybridoma; also called m342-12H8.3; m12H8) VH: QIQLVQSGPELKKPGETVKISCKTSGYTFTDYSMHWVNQAPGKGLKWMGWINTETGEPTYTDDFKGRFAFSLETSASTAYLQINNLKNEDTATYFCARTAVYWGQGTTLTVSS VL: DIQMTQSPSSLSASLGERVSLTCRASQEISGSLSWLQQKPDGTIKRLIYAASTLNSGVPKRFSGRRSGSDYSLTISSLESEDFVDYYCLQYSSYPWSFGGGTKLEIKR is ____. 72
